B1: Progranulin (Homo sapiens), P28799 (parent)
chain: MWTLVSWVALTAGLVAGTRCPDGQFCPVACCLDPGGASYSCCRPLLDKWPTTLSRHLGGPCQVDAHCSAGHSCIFTVSGTSSCCPFPEAVACGDGHHCCPRGFHCSADGRSCFQRSGNNSVGAIQCPDSQFECPDFSTCCVMVDGSWGCCPMPQASCCEDRVHCCPHGAFCDLVHTRCITPTGTHPLAKKLPAQRTNRAVALSSSVMCPDARSRCPDGSTCCELPSGKYGCCPMPNATCCSDHLHCCPQDTVCDLIQSKCLSKENATTDLLTKLPAHTVGDVKCDMEVSCPDGYTCCRLQSGAWGCCPFTQAVCCEDHIHCCPAGFTCDTQKGTCEQGPHQVPWMEKAPAHLSLPDPQALKRDVPCDNVSSCPSSDTCCQLTSGEWGCCPIPEAVCCSDHQHCCPQGYTCVAEGQCQRGSEIVAGLEKMPARRASLSHPRDIGCDQHTSCPVGQTCCPSLGGSWACCQLPHAVCCEDRQHCCPAGYTCNVKARSCEKEVVSAQPATFLARSPHVGVKDVECGEGHFCHDNQTCCRDNRQGWACCPYRQGVCCADRRHCCPAGFRCAARGTKCLRREAPRWDAPLRDPALRQLL

Variants of: B1
Conditions: with sgta_human SGTA
observation type: effect of a mutation on the interaction

variant | observed measurement
P451L | with no effect
P248L | with no effect
